- targetOfAssay: T1, rat alpha CGRP (SEQ ID NO: 82) (rat)
- T1 construct: also called rat αCGRP; rat α-CGRP
- T1 peptide: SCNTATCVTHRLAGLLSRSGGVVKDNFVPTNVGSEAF
- assayRemarks: SPR, 37 C, mutein captured, CGRP analyte
resultType: kon
Please give the number followed by its unit.

lipocalin mutein SEQ ID NO: 19 (designed binder, biotinylated by NHS chemistry for capture in SPR) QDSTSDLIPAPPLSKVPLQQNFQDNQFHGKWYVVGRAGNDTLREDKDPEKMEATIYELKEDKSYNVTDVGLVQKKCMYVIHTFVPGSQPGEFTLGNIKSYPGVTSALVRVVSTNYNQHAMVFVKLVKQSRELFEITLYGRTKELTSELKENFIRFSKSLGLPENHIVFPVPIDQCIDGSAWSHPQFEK: 1.25e+06 M⁻¹ s⁻¹
lipocalin mutein SEQ ID NO: 21 (designed binder, biotinylated by NHS chemistry for capture in SPR) QDSTSDLIPAPPLSKVPLQQNFQDNQFHGKWYVVGRAGNDALREDKDPEKMEATIYELKEDKSYNVTDVGFVQKKCMYVIHTFVPGSQPGEFTLGNIKSYPGVTSALIRVVNTNYNQHAMVFVKLVKQNRELFEITLYGRTKELTSELKENFIRFSKSLGLPENHIVFPVPIDQCIDGSAWSHPQFEK: 703000 M⁻¹ s⁻¹
lipocalin mutein SEQ ID NO: 27 (designed binder, biotinylated by NHS chemistry for capture in SPR) QDSTSDLIPAPPLSKVPLQQNFQDNQFHGKWYVVGWAGNTLLREDKDPIKMQAMIYELKEDKSYNVTWVYFADKKCNYHIETFVPGSQPGEFTLGTIKSYPGETPILVRVVSTNYNQHAMVFFKGVNQNREIFEIVLYGRTKELTNELKENFIRFSKSLGLPENHIVFPVPIDQCIDGSAWSHPQFEK: 807000 M⁻¹ s⁻¹
lipocalin mutein SEQ ID NO: 22 (designed binder, biotinylated by NHS chemistry for capture in SPR) QDSTSDLIPAPPLSKVPLQQNFQDNQFHGKWYVVGRAGNDALREDKDPEKMEATIYELKEDKSYNVTDVGLVQKKCMYVIHTFVPGGQPGEFTLGNIKSYPGVTSALVRVVSTNYNQHAMVFVKLVKQNRELFEITLYGRTKELTSELKENFIRFSKSLGLPENHIVFPVPIDQCIDGSAWSHPQFEK: 931000 M⁻¹ s⁻¹
lipocalin mutein SEQ ID NO: 26 (designed binder, biotinylated by NHS chemistry for capture in SPR) QDSTSDLIPAPPLSKVPLQQNFQDNQFHGKWYVVGWAGNTLLREDKDPIKMQAKIYELKEDRSYNVTWVYFADKKCRYHIETFVPGSQPGEFTLGTIKSHPGETPILVRVVSTNYNQHAMVFFKGVNQNREIFEIILYGRTKELTNELKENFIRFSKSLGLPENHIVFPVPIDQCIDGSAWSHPQFEK: 1.31e+06 M⁻¹ s⁻¹
lipocalin mutein SEQ ID NO: 16 (designed binder, biotinylated by NHS chemistry for capture in SPR) QDSTSDLIPAPPLSKVPLQQNFQDNQFHGKWYVVGRAGNDELREDKDPEKMEATIYELKEDKSYNVTDVGFVQKKCMYVIHTFVPGSQPGEFTLGNIKSYPGVTSGLVRVVSTNYNQHAMVFFKVVRQNRELFEITLYGRTKELTSELKENFIRFSKSLGLPENHIVFPVPIDQCIDGSAWSHPQFEK: 1.41e+06 M⁻¹ s⁻¹

Input line: Value lookup for kon; key = lipocalin mutein SEQ ID NO: 7 (designed binder, biotinylated by NHS chemistry for capture in SPR) QDSTSDLIPAPPLSKVPLQQNFQDNQFHGKWYVVGWAGNTLLREDKDPIKMQATIYELKEDKSYNVTWVYFSEKRCNYHIETSVPGSQPGEFTLGTIKSYPGETSILVRVVSTNYNQHAMVFFKGVSQNREIFEITLYGRTKELTSELKENFIRFSKSLGLPENHIVFPVPIDQCIDGSAWSHPQFEK
Output line: 1.04e+06 M⁻¹ s⁻¹
